This collection of values is drawn from patent US20170107207A1.

EXPERIMENTAL_SYSTEM: TIP48/TIP49 complex (Homo sapiens, UniProt Q9Y230+Q9Y265)
Sequence (Q9Y230 whole entry): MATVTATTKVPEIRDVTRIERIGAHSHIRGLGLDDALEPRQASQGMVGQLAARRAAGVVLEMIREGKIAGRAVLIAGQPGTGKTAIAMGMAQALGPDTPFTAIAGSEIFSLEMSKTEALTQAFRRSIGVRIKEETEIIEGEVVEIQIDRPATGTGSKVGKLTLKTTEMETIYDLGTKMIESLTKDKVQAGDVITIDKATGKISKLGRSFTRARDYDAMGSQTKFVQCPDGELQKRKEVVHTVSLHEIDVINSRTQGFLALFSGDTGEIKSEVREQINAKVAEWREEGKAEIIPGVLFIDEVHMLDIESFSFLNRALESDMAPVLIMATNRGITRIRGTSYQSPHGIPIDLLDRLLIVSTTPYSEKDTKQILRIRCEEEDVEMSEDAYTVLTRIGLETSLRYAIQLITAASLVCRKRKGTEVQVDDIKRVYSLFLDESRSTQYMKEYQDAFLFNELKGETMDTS
Sequence (Q9Y265 whole entry): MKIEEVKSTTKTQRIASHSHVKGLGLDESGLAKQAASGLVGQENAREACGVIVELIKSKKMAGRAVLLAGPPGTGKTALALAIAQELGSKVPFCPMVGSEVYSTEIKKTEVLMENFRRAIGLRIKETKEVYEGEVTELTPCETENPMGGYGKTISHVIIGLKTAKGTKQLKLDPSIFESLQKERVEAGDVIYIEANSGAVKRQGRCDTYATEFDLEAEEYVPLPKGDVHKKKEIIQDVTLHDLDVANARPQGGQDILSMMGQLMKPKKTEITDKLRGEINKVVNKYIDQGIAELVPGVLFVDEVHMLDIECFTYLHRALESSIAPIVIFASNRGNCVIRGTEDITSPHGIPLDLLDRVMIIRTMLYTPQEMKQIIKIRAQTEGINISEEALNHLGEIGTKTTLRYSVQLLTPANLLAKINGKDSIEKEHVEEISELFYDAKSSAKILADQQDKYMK
PROCEDURE_DETAILS: ATPase assay of TIP48/TIP49 complex (ADP-Glo)
EXPERIMENTAL_CONTEXT: concentration at which the ATPase activity was inhibited by 50%
Kindly state IC50 for each of the entries shown.
Write down the numeric answer in nM and omit the unit.

### Prompt Entry COc1ccc(Cl)cc1C(=O)NCC(C)(C)CC(=O)Nc1c(COC2CN(C)C2)n(C)n(-c2ccccc2)c1=O has what IC50?
### Response 220

### Prompt Entry CCOc1ccc(Cl)cc1C(=O)NCC(C)(C)CC(=O)Nc1c(CC(=O)OC)n(C)n(-c2ccccc2)c1=O has what IC50?
### Response 62

### Prompt Entry COc1ccc(Cl)cc1NC(=O)CC(C)(CC(=O)Nc1c(C)n(C)n(-c2ccccc2)c1=O)OC (centres unmarked) has what IC50?
### Response 250

### Prompt Entry CCOc1cc(F)c(Cl)cc1C(=O)NCC(C)(C)C(C)C(=O)Nc1c(COC)n(C)n(-c2ccccc2)c1=O (centres unmarked) has what IC50?
### Response 77

### Prompt Entry COc1ccc(Cl)cc1C(=O)NCC(C)(C)CC(=O)Nc1c(CCNC(=O)OC(C)(C)C)n(C)n(-c2ccccc2)c1=O has what IC50?
### Response 65

### Prompt Entry CCOc1ccc(Cl)cc1C(=O)NCC(C)(C)CC(=O)Nc1c(CCCN(C)C)n(C)n(-c2ccccc2)c1=O has what IC50?
### Response 29

### Prompt Entry COCc1cc2cc(Cl)cc(C(=O)NCC(C)(C)CC(=O)Nc3c(CCN(C)C)n(C)n(-c4ccccc4)c3=O)c2o1 has what IC50?
### Response 76

### Prompt Entry CNCc1c(NC(=O)CC(C)(C)CNC(=O)c2cc(Cl)ccc2OC)c(=O)n(-c2ccccc2)n1C has what IC50?
### Response 48

* * *

EXPERIMENTAL_SYSTEM: TIP48/TIP49 complex (Homo sapiens, UniProt Q9Y230+Q9Y265)
PROCEDURE_DETAILS: ATPase assay of TIP48/TIP49 complex (ADP-Glo)
EXPERIMENTAL_CONTEXT: concentration at which the ATPase activity was inhibited by 50%
PROPERTY: pIC50
A value of pIC50 is the negative decimal logarithm of a concentration given in moles per litre.

### Prompt Entry CCOc1ncc(Cl)cc1C(=O)NCC(C)(C)CC(=O)Nc1c(C(C)NC)n(C)n(-c2ccccc2)c1=O (single isomer, unassigned; (-)) [Example 86] has what pIC50?
### Response 7.05

### Prompt Entry CCOc1ncc(Cl)cc1C(=O)NCC(C)(C)CC(=O)Nc1c(C)n(CCN2CCOCC2)n(-c2ccccc2)c1=O [Example 142] has what pIC50?
### Response 7.21

### Prompt Entry CCOc1ncc(Cl)cc1C(=O)NCC(C)(C)CC(=O)Nc1c(C(C)NC)n(C)n(-c2ccccc2)c1=O (single isomer, unassigned) [Example 85] has what pIC50?
### Response 6.96

* * *

Kindly state GI50 for each of the entries shown.
Tested on: human lymphoma cell line RAMOS cells
PROCEDURE_DETAILS: Cell growth inhibition test using RAMOS cell, MTT assay
Type: cell-based
EXPERIMENTAL_CONTEXT: 50% growth inhibition concentration
Write down the numeric answer in nM and omit the unit.

### Prompt API: value(readout=GI50, system=human lymphoma cell line RAMOS cells) for record CCC(C)(CC(=O)Nc1cc(Cl)ccc1OC)CC(=O)Nc1c(C)n(C)n(-c2ccccc2)c1=O (stereo not shown)
### Response 400

### Prompt API: value(readout=GI50, system=human lymphoma cell line RAMOS cells) for record CCOc1ncc(Cl)cc1C(=O)NCC(C)(C)CC(=O)Nc1c(C)n(CCN2CCC2)n(-c2ccccc2)c1=O
### Response 240

### Prompt API: value(readout=GI50, system=human lymphoma cell line RAMOS cells) for record CCOc1ccc(Cl)cc1C(=O)NCC(C)(C)CC(=O)Nc1c(C)n(C)n(-c2cc(OC)ccn2)c1=O
### Response 120

### Prompt API: value(readout=GI50, system=human lymphoma cell line RAMOS cells) for record CCOc1ccc(Cl)cc1C(=O)NCC(C)(C)CC(=O)Nc1c(C)n(CC)n(-c2ccccc2)c1=O
### Response 48

### Prompt API: value(readout=GI50, system=human lymphoma cell line RAMOS cells) for record COc1cc(F)c(Cl)cc1NC(=O)CC(C)(C)CC(=O)Nc1c(C)[nH]n(-c2ccccc2)c1=O
### Response 11000

### Prompt API: value(readout=GI50, system=human lymphoma cell line RAMOS cells) for record CCOc1ccc(Cl)cc1C(=O)NCC(C)(C)CC(=O)Nc1c(CCN(C)C)n(CC)n(-c2ccccc2)c1=O
### Response 27

### Prompt API: value(readout=GI50, system=human lymphoma cell line RAMOS cells) for record CCOc1ncc(Cl)cc1NC(=O)CC(C)(C)CC(=O)Nc1c(CCN(C)C)n(C)n(-c2ccccc2)c1=O
### Response 490

### Prompt API: value(readout=GI50, system=human lymphoma cell line RAMOS cells) for record CCOc1cc(F)c(Cl)cc1C(=O)NCC(C)(C)CC(=O)Nc1c(CCN(C)C)n(C)n(-c2ccccc2)c1=O
### Response 35

### Prompt API: value(readout=GI50, system=human lymphoma cell line RAMOS cells) for record Cc1c(NC(=O)CC(C)(O)CNC(=O)c2cc(Cl)c(F)cc2OC(C)C)c(=O)n(-c2ccccc2)n1C (stereo not shown)
### Response 1000

### Prompt API: value(readout=GI50, system=human lymphoma cell line RAMOS cells) for record CCOc1ccc(Cl)cc1C(=O)NCC(C)(C)CC(=O)Nc1c(CCN(C)CC(F)(F)F)n(C)n(-c2ccccc2)c1=O
### Response 99

### Prompt API: value(readout=GI50, system=human lymphoma cell line RAMOS cells) for record CCCn1c(C)c(NC(=O)CC(C)(C)CC(=O)Nc2cc(Cl)c(F)cc2OC)c(=O)n1-c1ccccc1
### Response 330

### Prompt API: value(readout=GI50, system=human lymphoma cell line RAMOS cells) for record COc1ccc(Cl)cc1C(=O)NCC(C)(C)CC(=O)Nc1c(CN(C)CCO)n(C)n(-c2ccccc2)c1=O
### Response 170

### Prompt API: value(readout=GI50, system=human lymphoma cell line RAMOS cells) for record CCOc1ccc(Cl)cc1C(=O)NCC(C)(C)CC(=O)Nc1c(C)n(C)n(-c2ccccn2)c1=O
### Response 190

### Prompt API: value(readout=GI50, system=human lymphoma cell line RAMOS cells) for record COc1ccc(Cl)cc1NC(=O)CC1(CC(=O)Nc2c(C)n(C)n(-c3ccccc3)c2=O)CCC1
### Response 860

### Prompt API: value(readout=GI50, system=human lymphoma cell line RAMOS cells) for record CCOc1ccc(Cl)cc1C(=O)NCC(C)(C)CC(=O)Nc1c(CCNC(=O)OC(C)(C)C)n(C)n(-c2ccccc2)c1=O
### Response 45

### Prompt API: value(readout=GI50, system=human lymphoma cell line RAMOS cells) for record Cc1c(NC(=O)CC(C)(C)CNC(=O)c2cc(Cl)cc3c2OC(C)(C)C3)c(=O)n(-c2ccccc2)n1CCO
### Response 65
